Biological target: T1, human TMEM106B (human, UniProt Q9NUM4 2-274)
T1 construct: full-length, transiently expressed on HEK293 cells, or natively expressed on HeLa, U251 and A549 cells (the cell is named under assay); also the source of the Pepscan peptides; also called huTMEM106B; huTMEM
Assay: FACS HEK+huTMEM 0.1 ug/ml (2nd column so headed);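 also: flow cytometry binding of purified anti-TMEM106B mouse IgG to HEK293 cells transiently transfected with TMEM106B, read as median fluorescence intensity on live (propidium iodide-negative) cells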
Assay metric: MFI (MFI)
Hi! Could you send only the number? It should be in MFI, unit omitted.

Reported MFI, binder TM-32 (antibody, V domains shown) VH: EVQLQQSGAELVRPGASVRLSCIASGFNIKDYYMYWVKQRPEQGLEWIGRIDPEDGDTEYVPKFQGKATMTADTSSNTAYLQLSSLTSEDIGVYYCTTRTWDLYYAVDNWGQGTSVTVSS VL: DVLMTQTPLSLPVSLGDQASISCRSSQNIVHSNGNTYLEWYLQKPGQSPKLLIDKVSNRFSGVPDRFSGSGSGTDFTLKISRVEAEDLGIYYCFQGSHVPFTFGSGTKLEIK : ____
4100

Try the binder TM-16 (antibody, V domains shown) VH: EVQLQQSGAELVRPGASVKLSCTTSGFNIKDYYMHWVKQRTEQGLEWIGRIDPEDGETKYAPEFQGKATITSDTSSNTAFLQLSSLTSEDTAVYYCASSQPFTYWGQGTLVTVSA VL: QIVLTQSPAIMSASPGEKLTMTCSASSSLNYMYWYQQKPGSSPRLLIYDTSNLASGVPVRFSGSGSGTSYSLTISRMEAEDGATYYCQQWTSFPPTFGAGTKLELK
351

Same again, this time with TM-42 (antibody, V domains shown) VH: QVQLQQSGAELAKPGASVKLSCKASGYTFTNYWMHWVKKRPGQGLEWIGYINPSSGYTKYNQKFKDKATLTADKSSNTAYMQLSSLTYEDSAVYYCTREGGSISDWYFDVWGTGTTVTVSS VL: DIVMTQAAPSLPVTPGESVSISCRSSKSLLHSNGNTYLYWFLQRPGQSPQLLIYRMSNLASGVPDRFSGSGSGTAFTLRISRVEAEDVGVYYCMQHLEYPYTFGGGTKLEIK
2070

Continue with TM-14 (antibody, V domains shown, mouse IgG (hybridoma)) VH: QVQLQQSGPELVRPGTSVKVSCKASGYAFTNYLIEWVKQRPGQGLEWIGVINPGGGNTDYSEKFKDKATLTADKSSNTAYIQLSSLTSEDSAVYFCARSPYSSYVGYAVDYWGQGTSVTVSS VL: DIQMTQSPSSLSASLGERVSLTCRASQDIGSNLNWLQQEPDGTIKRLIYATSSLDSGVPKRFSGSRSGSDYSLTISSLESEDFVVYYCLQYASSPRTFGGGTRLEIK
314

Can you handle TM-24 (antibody, V domains shown, mouse IgG (hybridoma)) VH: QVQLKQSGPGQVQPSQSLSITCTVSGFSLSDYGVHWVRQSPGKGLEWLGVIWNNGNTDYNAAFISRLSINKDNSKSQVFFKMTSLQADDTAIYYCVRSLRPLHFDYWGQGTTVTVSS VL: DIVMTQSPSSLTMSVGQKVTMNCKSSQSLLNSNNQQNYLAWYQQKPGQSPKLLVYFASIRESGVPDRFIGSGSGTDFTLTINSVQAEDLADYFCQQHYSTPFTFGSGTKLEIR next?
3620

Again, but for TM-37 (antibody, V domains shown) VH: QVQLQQSGAELAKPGASVKLSCKASGYTFTSYWMHWVKQRPGQGLEWIGYVNPSSGYTKNNQKFKDKVTLTADKSSSTAYMQLSSLTYEDSAVYYCAREGGSISDWYFDVWGTGTTVTVSS VL: DIVMTQAAPSVPVTPGESVSISCRSSKSLLHSNGNTYSYWFLQRPGQSPQLLIYRMSNLASGVPDRFSGSGSGTAFTLRISRVEAEDVGVYYCMQHLEYPYTFGGGTKLEIK
3920

Try this binder too: TM-31 (antibody, V domains shown, mouse IgG (hybridoma)) VH: QVQLQQSGAELAKPGASVKVSCKASGYTFISYWMNWVKQRPGQGLEWIGYINPTSGYTRYNQKFKDKATLTADKSSSTAYMQLSSLTYEDSAVYYCARSPPTVVLIGYFDYWGQGTTLTVSS VL: DIKMTQSPSSMYASLGERVTFTCKASQDINSYLSWFQQKPGKSPKTLIYRGNGLVDGVPSRFSGSGSGQDYSLTISSLEYEDMGIYYCLQYDEFPFTFASGTKLEIK
596

Now give it for TM-6 (antibody, V domains shown, mouse IgG (hybridoma)) VH: QVQLQQSGAELVKPGASVKLSCKASGYTFTEYTIHWVKQRSGQGLEWIGWFYPGSTYIDYNEKFKDKATLTADKSSSTVYLELSRLTSEDSAVYFCARHEEDYSNWFPFWGQGTLVTVSA VL: DIQMSQSSSYLSVSLGGRVTITCKASDHINNWLAWYQQKPGNAPRLLISGATSLETGVPSRFSGSGSGKDYTLSITSLQTEDVATYYCQQYWSSPYTFGGGTKLEIK too.
294

# repeat for TM-33 (antibody, V domains shown, mouse IgG (hybridoma)) VH: EFQLQQSGPELVKPGASVKISCKASGYSFTDYNMNWVKQSNGKSLEWIGVINPNYGTTSYNQKFKGKATLTVDQSSSTAYMQLNSLTSEDSAVYYCASSYWGQGTLVTVSA VL: DIVMTQSQKFMSTTVGDRVSITCKASQNVGTAVAWYQQKPGQSPKLLIYSASNRYTGVPDRFTGSGSGTDFTLTISNMQSEDLADYFCQQYSSYPYTFGGGTKLEIK
651

Now give it for TM-15 (antibody, V domains shown, mouse IgG (hybridoma)) VH: QVQLQQPGAEFVRPGASVKLSCKASGYTFTNYWITWVKQRPGHGLEWIGDIYPGSGNSNYNESFKRKATLTVDTSSSTAYMHLSSQTSEDSAVYFCARKAYGGFPYWGQGTLVTVSA VL: DIQMTQSPASLSVSVGETVTITCRVSENIYNNLAWYQQKQEKSPQLLVFAATNLADGVPSRFSGSGSGTQFSLKINSLQSEDFGTYYCQHFWDTPFTFGSGTKLEIK too.
584
